# Experimental System: GDP-bound protein (aa 1-169), containing both G12C and C118A amino acid substitutions (Homo sapiens, UniProt P01116, C118A/G12C)
# Sequence (P01116 1-169 isoform P01116-2 G12C/C118A): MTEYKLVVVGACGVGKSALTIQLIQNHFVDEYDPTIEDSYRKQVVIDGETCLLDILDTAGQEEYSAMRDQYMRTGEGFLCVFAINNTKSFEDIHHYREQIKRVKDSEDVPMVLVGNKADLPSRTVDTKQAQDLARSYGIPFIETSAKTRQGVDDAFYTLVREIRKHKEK
# Assay Details: Coupled Nucleotide Exchange Assay (SOS-mediated nucleotide exchange, AlphaScreen)
# Assay type: biochemical
# Assay Context: 2 hours compound pre-incubation
Coupled exchange IC50 values for the compounds below.
Express your answer in µM, writing the number without its unit.

# annotated cases, reported Coupled exchange IC50 shown
Problem: May I ask what Coupled exchange IC50 has been recorded for C=CC(=O)N1C[C@@H](C)N(c2snc3c(F)c(-c4cc(O)cc5ccccc45)c(Cl)cc23)[C@H](C)C1 (racemic) [Example 2-7] ?
Result: 1.08

Problem: I am curious: what Coupled exchange IC50 value has been reported for C=CC(=O)N1CCN(c2snc3c(F)c(-c4cc(O)ccc4F)c(Cl)cc23)CC1 [Example 1-28] ?
Result: 2.20

Problem: Would you mind telling me what Coupled exchange IC50 value was observed for C=CC(=O)N1CCN(c2snc3c(F)c(-c4cc(O)cc5ccccc45)c(Cl)cc23)[C@@H](C(F)F)C1 (racemic) [Example 7-1] ?
Result: 0.299

Further cases:
Problem: So what's the measured Coupled exchange IC50 for this one? C=CC(=O)N1CCN(c2snc3c(F)c(-c4cc(O)cc(F)c4F)c(Cl)cc23)CC1 [Example 3-16]
Result: 2.60

Problem: Entry under review: C=CC(=O)N1CCN(c2snc3nc(-c4c(F)cccc4OC)c(Cl)cc23)C(C)C1 (racemic) [Example 2-2] . Reported Coupled exchange IC50?
Result: 12.7

----------
# System: Phosphorylation of ERK½ in MIA PaCa-2 cells
# Assay Details: Phospho-ERK½ MSD Assay in MIA PaCa-2 cells
# Assay type: cell-based
# Assay Context: MIA PaCa-2 cells; 4 hours compound treatment; 10 ng/mL EGF for 10 min; read-out: p-ERK IC50 (MIA PaCa-2)
Measured IC50, listed per entry.
Express it in nM; write the number only.

Sample records with IC50:
Problem: I am curious: what IC50 value has been reported for C=CC(=O)N1CCN(c2nc(=O)n(-c3ccccc3C(C)C)c3cc(-c4c(O)cccc4F)c(Cl)cc23)CC1 (single isomer, unassigned) [Example 8-1-1] ?
Result: 46

Problem: Looking for the measured IC50 of C=CC(=O)N1CCN(c2snc3c(F)c(-c4cc(O)cc5ccccc45)c(Cl)cc23)CC1 (single isomer, unassigned) [Example 3-1-2] , can you help?
Result: 2350

Problem: Field request: IC50 | item: C=CC(=O)N1CCN(c2nc(=O)n(-c3ccccc3C(C)C)c3cc(-c4c(O)cccc4F)c(Cl)cc23)CC1 (single isomer, unassigned) [Example 8-1-2]
Result: 811

Problem: I have this compound here, C=CC(=O)N1CCN(c2nc(=O)n(-c3ccncc3C3CC3)c3cc(-c4c(O)cccc4F)c(Cl)cc23)[C@@H](C)C1 (single isomer, unassigned) [Example 9-7-2] , and I need its recorded IC50.
Result: 237

Then there is this compound:
Problem: Tell me the measured IC50 of C=CC(=O)N1CCN(c2nc(=O)n(-c3ccccc3C(C)C)c3cc(-c4c(C)ccc5[nH]ncc45)c(Cl)cc23)[C@@H](C)C1 (single isomer, unassigned) [Example 11-2-2] , please.
Result: 6
